Assembled from different publications: pIC50 for Epidermal growth factor receptor (Homo sapiens, UniProt P00533).
pIC50: −log10 of the molar value.

Solved cases below.
[
  {
    "COMPOUND": "Cc1ccc(Oc2ccc(Nc3ncnc4[nH]c5c(c34)CN(C(=O)/C=C/CN(C)C)CC5)cc2C)cn1",
    "pIC50": "< 5.00"
  },
  {
    "COMPOUND": "Cc1c(-c2ccc(Oc3ccccc3)cc2)c2c(N)ncnc2n1[C@@H]1CCN(C(=O)/C=C/CN(C)C)C1",
    "pIC50": "5.00 to 6.00"
  },
  {
    "COMPOUND": "COCCN1CCC(Nc2ccc3c(c2)/C(=C(\\c2ccc(F)c(F)c2)c2ncc[nH]2)C(=O)N3)CC1",
    "pIC50": "< 5.30"
  }
]

In: // lookup pIC50 for `COCCN1CCC(Nc2ccc3c(c2)/C(=C(\c2ccc(C)cc2)c2ncc[nH]2)C(=O)N3)CC1`
Out: 6.30 to 7.30

In: Likewise for `CCc1nccn1Cc1ccc(Nc2nc3ncnc(Nc4ccc(F)c(Cl)c4)c3s2)cc1` ?
Out: 8.26

In: Likewise for `C#Cc1cccc(Nc2ncnc3nc(Nc4ccc(OC)nc4)sc23)c1` ?
Out: 7.54

In: Likewise for `Cc1c2c(nn1C)/C=C/c1n[nH]c3ccc(cc13)-c1cnn(C)c1O[C@@H](C)CN(C(C)C)C2` ?
Out: 6.82

In: Likewise for `C[C@H]1COCCN1C/C=C/C(=O)N1CCc2c(sc3ncnc(Nc4ccc(Oc5ccc6ncnn6c5)c(Cl)c4)c23)C1` ?
Out: < 5.00

In: Likewise for `C=CC(=O)Nc1cccc(Nc2nc(Nc3ccc(O[C@@H](C)COC(=O)[C@@H](N)C(C)C)c(F)c3)ncc2F)c1` ?
Out: 7.00 to 8.00

In: Likewise for `COc1cc(N2CCC3(CCN(C)CC3)CC2)c(Cl)cc1Nc1ncc(Br)c(Nc2cccc3c2N(S(C)(=O)=O)CC3)n1` ?
Out: 8.49

In: Likewise for `CC(C)c1ccc(N2CC(CS(C)(=O)=O)C2)c2cnc(Nc3ccnc(N(C)Cc4cccc(C=O)c4O)n3)cc12` ?
Out: < 6.00
